target: SARS-CoV2 Mpro (Severe acute respiratory syndrome coronavirus 2 (2019-nCoV) (SARS-CoV-2), UniProt P0DTD1)
Measured Endpoint: IC50

// Input: N#C[C@H](C[C@@H]1CCCNC1=O)NC(=O)C1CC2(CCCCC2)CN1C(=O)c1cc2c(Cl)cccc2[nH]1 (single isomer, unassigned) [801 (Isomer 2)] . Output its IC50 only.
10 to 30 µM

// Input: N#C[C@H](C[C@@H]1CCCNC1=O)NC(=O)C1CC2(CCC2)CN1C(=O)c1cc2ccc(Cl)cc2[nH]1 (single isomer, unassigned) [791 (Isomer 2)] . Output its IC50 only.
< 2 µM

// Input: CC1(C)CC(C[C@@H](C#N)NC(=O)C2CC3(CCCCC3)CN2C(=O)c2cc3cccc(Cl)c3[nH]2)C(=O)N1 (single isomer, unassigned) [930 (Isomer 3)] . Output its IC50 only.
< 2 µM

// Input: COc1cc(Cl)c2[nH]c(C(=O)N3CC4(CCCCC4)CC3C(=O)N[C@H](C#N)C[C@@H]3CCCNC3=O)cc2c1 (single isomer, unassigned) [1147A (Isomer 2)] . Output its IC50 only.
2 to 10 µM

// Input: COc1cccc2[nH]c(C(=O)N3CC4(CCCCC4)CC3C(=O)N[C@H](C#N)CC3CCC(C)(C)NC3=O)cc12 (single isomer, unassigned) [1111 (Isomer 2)] . Output its IC50 only.
> 30 µM

###

molecular target: 229E Mpro (Human coronavirus 229E (HCoV-229E)); test: 229E Mpro activity; assay type: biochemical; conditions: read-out: 229E Mpro EC50
Sequence (P0C6X1 2966-3267 limits assumed): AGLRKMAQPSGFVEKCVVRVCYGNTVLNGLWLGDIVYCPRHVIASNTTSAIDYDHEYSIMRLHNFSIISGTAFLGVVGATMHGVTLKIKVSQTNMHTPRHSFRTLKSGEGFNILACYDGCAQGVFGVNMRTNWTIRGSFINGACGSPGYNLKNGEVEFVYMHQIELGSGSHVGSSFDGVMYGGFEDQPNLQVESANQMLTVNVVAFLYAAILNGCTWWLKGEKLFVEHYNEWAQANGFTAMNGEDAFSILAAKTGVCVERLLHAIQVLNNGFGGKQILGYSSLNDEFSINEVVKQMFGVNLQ
pEC50: −log10 of the molar value.
Field: pEC50. Provide a value for each of the compounds that follow.

// Input: CC1(C)CCC(C[C@@H](C#N)NC(=O)C2CC3(CCCCC3)CN2C(=O)c2cc3cccc(Cl)c3[nH]2)C(=O)N1 (single isomer, unassigned) [928 (Isomer 3)] . Output its pEC50 only.
5.00 to 5.70

// Input: COc1ccc(Cl)c2[nH]c(C(=O)N[C@@H](CC(C)(C)C)C(=O)N[C@H](C#N)C[C@@H]3CCNC3=O)cc12 . Output its pEC50 only.
> 5.70

// Input: COc1cccc2[nH]c(C(=O)N3C[C@H]4C([C@H]3C(=O)N[C@H](C#N)C[C@@H]3CCNC3=O)C4(C)C)cc12 (stereo partly drawn) . Output its pEC50 only.
> 5.70

// Input: COc1cc(Cl)c2[nH]c(C(=O)N3CC4(CCCCC4)CC3C(=O)N[C@H](C#N)C[C@@H]3CCCNC3=O)cc2c1 (single isomer, unassigned) [1147A (Isomer 1)] . Output its pEC50 only.
> 5.70

// Input: N#C[C@H](C[C@@H]1CCCNC1=O)NC(=O)[C@@H](CC1CC1)NC(=O)c1cc2cccc(Cl)c2[nH]1 [Compound 639A] . Output its pEC50 only.
> 5.70

// Input: N#C[C@H](C[C@@H]1CCNC1=O)NC(=O)C1CC2(CCC2)CN1C(=O)c1cc2ccc(Cl)cc2[nH]1 (single isomer, unassigned) [990 (Isomer 1)] . Output its pEC50 only.
< 4.52

###

Field: pIC50. Provide a value for each of the compounds that follow.
target: SARS-CoV2 Mpro (Severe acute respiratory syndrome coronavirus 2 (2019-nCoV) (SARS-CoV-2))
pIC50: −log10 of the molar value.

// Input: COc1cccc2[nH]c(C(=O)N[C@@H](CC3CC3(F)F)C(=O)N[C@H](C#N)C[C@@H]3CCCNC3=O)cc12 (single isomer, unassigned) [1059 (Isomer 1)] . Output its pIC50 only.
> 5.70

// Input: N#C[C@H](C[C@@H]1CCCNC1=O)NC(=O)C1CC2(CCCCC2)CN1C(=O)c1cc2cccc(Cl)c2[nH]1 (single isomer, unassigned) [731 (Isomer 1)] . Output its pIC50 only.
> 5.70

// Input: COc1ccc(Cl)c2[nH]c(C(=O)N3CC4(CCC4)CC3C(=O)N[C@H](C#N)C[C@@H]3CCNC3=O)cc12 (single isomer, unassigned) [992 (Isomer 2)] . Output its pIC50 only.
< 4.52

// Input: COc1cc(Cl)cc2[nH]c(C(=O)N3CC4(CCCCC4)CC3C(=O)N[C@H](C#N)C[C@@H]3CCCNC3=O)cc12 (single isomer, unassigned) [908 (Isomer 2)] . Output its pIC50 only.
5.00 to 5.70

// Input: CC1(C)CCC(C[C@@H](C#N)NC(=O)C2CC3(CCCCC3)CN2C(=O)c2cc3cccc(Cl)c3[nH]2)C(=O)N1 (single isomer, unassigned) [928 (Isomer 4)] . Output its pIC50 only.
5.00 to 5.70
